Hello, the source for this data is PubChem BioAssay (NCATS), in case you need it.

We begin with a simple list: items and their reported activation.
experiment: qHTS assay for small molecule activators of the p53 signaling pathway (AID 651743); conditions: HCT-116 p53RE-bla, beta-lactamase FRET ratio, 16 h; active compounds read high; note: series mostly up to about 92 µM; % of control where 0% means no effect
Inconclusive results are not listed.
Answer format: numeric, % implied, no suffix.

// query Consider the molecule CN(C)CCCNCCCN and give its measured activation.
// result -2.59

// query Consider the molecule NC(N)=S and give its measured activation.
// result -1.07

// query Consider the molecule O=[N+]([O-])c1cc(C(F)(F)F)ccc1Cl and give its measured activation.
// result -0.0124

// query Consider the molecule CC(=O)Nc1ccc(C)cc1 and give its measured activation.
// result -3.2

// query Consider the molecule CC(=O)c1cccc([N+](=O)[O-])c1 and give its measured activation.
// result -3.72

More entries:
// query Consider the molecule Cc1c(N)cccc1[N+](=O)[O-] and give its measured activation.
// result -0.892

// query Consider the molecule Oc1c(Cl)ccc(Cl)c1Cl and give its measured activation.
// result 1.05

// query Consider the molecule O=C(O)CNC(=O)c1ccc(CO)o1 and give its measured activation.
// result -3.47

// query Consider the molecule COc1ccc(OC)cc1 and give its measured activation.
// result 1.53
